Target: Growth hormone secretagogue receptor type 1 (Homo sapiens, UniProt Q92847)
Sequence (Q92847 whole entry): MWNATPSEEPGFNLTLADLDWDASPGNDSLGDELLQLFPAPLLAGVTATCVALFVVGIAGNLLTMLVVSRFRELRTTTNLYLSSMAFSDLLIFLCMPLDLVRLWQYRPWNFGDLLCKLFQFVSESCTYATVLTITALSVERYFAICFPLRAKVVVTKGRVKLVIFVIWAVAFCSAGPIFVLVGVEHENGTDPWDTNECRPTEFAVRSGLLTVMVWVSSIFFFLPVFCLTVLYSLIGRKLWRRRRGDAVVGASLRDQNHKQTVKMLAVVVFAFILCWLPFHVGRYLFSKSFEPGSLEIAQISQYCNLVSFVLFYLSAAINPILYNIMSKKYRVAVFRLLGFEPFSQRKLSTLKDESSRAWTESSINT
Assay: Displacement of [125I]ghrelin from human GHSR1a after 1 hr
quantity.measured: pKi
// field semantics: pKi = negative decimal log of concentration (mol/L)

What the record says about CN(c1ccccc1CCCn1nnnc1[C@@H](COCc1ccccc1)NC(=O)C(C)(C)N)S(C)(=O)=O : pKi is 5.76

What the record says about CC(C)(N)C(=O)N[C@H](COCc1ccccc1)c1nnnn1CCc1ccccc1NS(C)(=O)=O : pKi is 5.66

What the record says about CC(C)(N)C(=O)N[C@H](COCc1ccccc1)c1nnnn1Cc1ccccc1NS(C)(=O)=O : pKi is 5.35
